Recorded values, source patent US11987586B1.

Answer each item with its documented OX2R agonist activity (3 uM, %).
targetDesc: human OX2 receptor (Homo sapiens, UniProt O43614)
Construct: expressed in transfected cells
assayText: Measurement of orexin type 2 receptor agonist activity (calcium fluorescence, Fluo-4, FDSS)
Format: cell-based
testParameters: 3 uM test compound; CHO cells expressing human OX2 receptor; DMSO = 0%, 10 nM orexin A (human) = 100%
Numbers only, in %.

Worked examples follow.
O=C1N(c2noc3ccc(F)c(-c4c(F)cccc4F)c23)CC[C@H]2N1C[C@@H](NS(=O)(=O)CF)C2(F)F ... 109
Cn1nc(-n2cc3n(c2=O)C[C@@H](NS(C)(=O)=O)C3)c2c(-c3c(F)cccc3F)cccc21 ... 106
CCS(=O)(=O)N[C@H]1C[C@H]2CN(c3noc4c(Cl)ccc(-c5c(F)cccc5F)c34)C(=O)N2C1 ... 88

Field: OX2R agonist activity (3 uM, %). Fill in for each record below.
1. CCS(=O)(=O)N[C@@H]1Cn2c(cn(-c3noc4cc(COC)cc(-c5c(F)cc(F)cc5F)c34)c2=O)C1(F)F
2. COCc1cc(-c2c(F)cc(F)cc2F)c2c(N3CC[C@H]4N(C[C@@H](NS(C)(=O)=O)C4(F)F)C3=O)noc2c1

Result:
[92, 94]

Hey, can you go through the list below and give me OX2R agonist activity (3 uM, %) for every item?
1. CS(=O)(=O)N[C@@H]1CN2C(=O)N(c3noc4cc(F)cc(-c5c(F)cc(F)cc5F)c34)CC[C@@H]2C1(F)F
2. CS(=O)(=O)N[C@@H]1CN2C(=O)N(c3noc4cccc(-c5c(F)cccc5F)c34)CC[C@@H]2C1(F)F

Result:
[102, 110]

====

Please provide measured OX2R agonist activity (3 uM, %) for the entries that follow.
targetDesc: human OX2 receptor (Homo sapiens, UniProt O43614)
Construct: expressed in transfected cells
Sequence (O43614 1-444): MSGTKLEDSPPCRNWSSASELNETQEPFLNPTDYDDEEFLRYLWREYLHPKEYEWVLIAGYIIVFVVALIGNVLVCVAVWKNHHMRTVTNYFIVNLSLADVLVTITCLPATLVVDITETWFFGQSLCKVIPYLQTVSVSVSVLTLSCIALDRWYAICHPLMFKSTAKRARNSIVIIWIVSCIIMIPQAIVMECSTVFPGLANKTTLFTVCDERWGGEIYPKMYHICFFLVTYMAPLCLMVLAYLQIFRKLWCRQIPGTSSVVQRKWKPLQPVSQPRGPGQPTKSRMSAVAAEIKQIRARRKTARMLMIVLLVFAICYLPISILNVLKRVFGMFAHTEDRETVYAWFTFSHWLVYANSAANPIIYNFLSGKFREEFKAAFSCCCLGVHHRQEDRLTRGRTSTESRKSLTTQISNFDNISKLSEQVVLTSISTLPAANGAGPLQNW
assayText: Measurement of orexin type 2 receptor agonist activity (calcium fluorescence, Fluo-4, FDSS)
Assay type: cell-based
testParameters: 3 uM test compound; CHO cells expressing human OX2 receptor; DMSO = 0%, 10 nM orexin A (human) = 100%
One number for each entry, in %.

CS(=O)(=O)N[C@@H]1CN2C(=O)N(c3noc4cccc(-c5c(F)cc(F)cc5F)c34)C(O)[C@@H]2C1(F)F (relative stereo) ... 103
CCS(=O)(=O)N[C@@H]1CN2C(=O)N(c3noc4cccc(-c5ccc(F)cc5C)c34)CC[C@@H]2C1(F)F ... 97
O=C1N(c2noc3cc(OC(F)F)cc(-c4c(F)cc(F)cc4F)c23)CC[C@H]2N1C[C@@H](NS(=O)(=O)C1CC1)C2(F)F ... 105
CCS(=O)(=O)N[C@@H]1Cn2c(cn(-c3noc4cc(F)cc(-c5c(F)cccc5F)c34)c2=O)C1(F)F ... 105
O=C1N(c2noc3cccc(-c4c(F)cc(F)cc4F)c23)CC[C@H]2N1C[C@@H](NS(=O)(=O)C1CC1)C2(F)F ... 105

Take each entry in turn and give its OX2R agonist activity (3 uM, %).
1. CCS(=O)(=O)N[C@@H]1Cn2c(cn(-c3noc4cc(F)c(F)c(-c5c(F)cccc5F)c34)c2=O)C1(F)F
2. CCS(=O)(=O)N[C@@H]1CN2C(=O)N(c3noc4cc(F)c(F)c(-c5c(F)cccc5F)c34)C[C@@H]2C1(F)F
3. CCS(=O)(=O)N[C@H]1Cc2cn(-c3cnc4cccc(-c5c(F)cccc5F)n34)c(=O)n2C1
4. O=C1N(c2noc3cccc(-c4c(F)cccc4F)c23)C[C@@H]2C[C@H](NS(=O)(=O)CF)CN12
5. CCS(=O)(=O)N[C@H]1Cc2c(C)n(-c3noc4cccc(-c5c(F)cccc5F)c34)c(=O)n2C1

Result:
94
102
101
101
105

====

So I've got a bunch of compounds here, and I need their OX2R agonist activity (3 uM, %) values.
targetDesc: human OX2 receptor (Homo sapiens, UniProt O43614)
Construct: expressed in transfected cells
Sequence (O43614 1-444): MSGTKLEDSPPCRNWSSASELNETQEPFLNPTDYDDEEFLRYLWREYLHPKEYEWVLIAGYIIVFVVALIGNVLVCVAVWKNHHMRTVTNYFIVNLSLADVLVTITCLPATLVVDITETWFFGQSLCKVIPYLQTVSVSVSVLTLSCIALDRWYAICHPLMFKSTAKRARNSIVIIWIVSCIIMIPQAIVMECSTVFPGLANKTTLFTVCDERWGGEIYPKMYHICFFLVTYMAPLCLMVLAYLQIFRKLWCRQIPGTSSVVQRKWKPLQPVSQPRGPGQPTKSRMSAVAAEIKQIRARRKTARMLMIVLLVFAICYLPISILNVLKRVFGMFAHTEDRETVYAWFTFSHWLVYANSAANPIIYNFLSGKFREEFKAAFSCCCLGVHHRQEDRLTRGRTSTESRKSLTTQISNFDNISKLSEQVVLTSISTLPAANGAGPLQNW
assayText: Measurement of orexin type 2 receptor agonist activity (calcium fluorescence, Fluo-4, FDSS)
Type: cell-based
testParameters: 3 uM test compound; CHO cells expressing human OX2 receptor; DMSO = 0%, 10 nM orexin A (human) = 100%
Give bare numbers, in %.

// worked examples, OX2R agonist activity (3 uM, %) included
Cc1cc(-c2c(F)cc(F)cc2F)c2c(N3CC[C@H]4N(C[C@@H](NS(C)(=O)=O)C4(F)F)C3=O)noc2n1 ... 100
CCS(=O)(=O)N[C@@H]1CN2C(=O)N(c3noc4cccc(-c5ccc(F)cc5Cl)c34)CC[C@@H]2C1(F)F ... 101

Record OX2R agonist activity (3 uM, %) per entry; entries follow.
1. CS(=O)(=O)N[C@@H]1Cn2c(cn(-c3noc4cc(CO)cc(-c5c(F)cc(F)cc5F)c34)c2=O)C1(F)F
2. CCS(=O)(=O)N[C@@H]1CN2C(=O)N(c3noc4cc(F)c(F)c(-c5c(F)cc(F)cc5F)c34)C[C@@H]2C1(F)F
3. COc1cc(-c2c(F)cc(F)cc2F)c2c(N3CC[C@H]4N(C[C@@H](NS(=O)(=O)C5CC5)C4(F)F)C3=O)noc2n1
4. CCS(=O)(=O)N[C@H]1Cc2cn(-c3cnn4cccc(-c5c(F)cccc5F)c34)c(=O)n2C1
5. CS(=O)(=O)N[C@@H]1Cn2c(cn(-c3noc4cc(Cl)cc(-c5c(F)cccc5F)c34)c2=O)C1(F)F
6. O=C1N(c2noc3cc(F)cc(-c4c(F)cc(F)cc4F)c23)CC[C@H]2N1C[C@@H](NS(=O)(=O)C1CC1)C2(F)F

Result:
1: 98; 2: 98; 3: 100; 4: 108; 5: 105; 6: 107

Q: What value of measured OX2R agonist activity (3 uM, %) is listed for CCS(=O)(=O)N[C@@H]1CN2C(=O)N(c3noc4cccc(-c5ccccc5OC)c34)CC[C@@H]2C1(F)F ?
Result: 99

====

For each of the molecules below, state its OX2R agonist activity (3 uM, %).
targetDesc: human OX2 receptor (Homo sapiens)
Construct: expressed in transfected cells
assayText: Measurement of orexin type 2 receptor agonist activity (calcium fluorescence, Fluo-4, FDSS)
Assay type: cell-based
testParameters: 3 uM test compound; CHO cells expressing human OX2 receptor; DMSO = 0%, 10 nM orexin A (human) = 100%
Give bare numbers, in %.

CS(=O)(=O)N[C@@H]1CN2C(=O)N(c3noc4cccc(-c5ncc(F)cc5F)c34)CC[C@@H]2C1(F)F [Example 320] ... 104

Give OX2R agonist activity (3 uM, %) for each listed item.
1. CCS(=O)(=O)N[C@@H]1CN2C(=O)N(c3noc4ccc(F)c(-c5c(F)cc(F)cc5F)c34)C[C@@H]2C1(F)F [Example 105]
2. CS(=O)(=O)N[C@@H]1CN2C(=O)N(c3noc4cc(Cl)c(F)c(-c5c(F)cccc5F)c34)C[C@@H]2C1(F)F [Example 107]
3. CCS(=O)(=O)N[C@@H]1Cn2c(cn(-c3noc4cc(COC)c(F)c(-c5c(F)cccc5F)c34)c2=O)C1(F)F [Example 212]
4. CS(=O)(=O)N[C@@H]1CN2C(=O)N(c3noc4nccc(-c5c(F)cc(F)cc5F)c34)CC[C@@H]2C1(F)F [Example 237]
5. CCS(=O)(=O)N[C@@H]1CN2C(=O)N(c3noc4cc(Cl)c(F)c(-c5c(F)cc(F)cc5F)c34)C[C@@H]2C1(F)F [Example 93]

Result:
1: 96; 2: 101; 3: 100; 4: 110; 5: 99

Please go through the list and note OX2R agonist activity (3 uM, %) for each molecule.
1. CCS(=O)(=O)N[C@@H]1CN2C(=O)N(c3noc4cc(F)cc(-c5c(F)cccc5F)c34)C[C@@H]2C1(F)F [Example 69]
2. O=C1N(c2noc3cc(F)cc(-c4c(F)cccc4F)c23)CC[C@H]2N1C[C@@H](NS(=O)(=O)CF)C2(F)F [Example 279]

Result:
1. 96
2. 104
